koff listing for selected binders.
# Target Desc: T1, Mouse ST2 (mouse, UniProt P14719 27-332, limits assumed)
# T1 construct: also called mouse ST2 protein
# T1 sequence (looked up): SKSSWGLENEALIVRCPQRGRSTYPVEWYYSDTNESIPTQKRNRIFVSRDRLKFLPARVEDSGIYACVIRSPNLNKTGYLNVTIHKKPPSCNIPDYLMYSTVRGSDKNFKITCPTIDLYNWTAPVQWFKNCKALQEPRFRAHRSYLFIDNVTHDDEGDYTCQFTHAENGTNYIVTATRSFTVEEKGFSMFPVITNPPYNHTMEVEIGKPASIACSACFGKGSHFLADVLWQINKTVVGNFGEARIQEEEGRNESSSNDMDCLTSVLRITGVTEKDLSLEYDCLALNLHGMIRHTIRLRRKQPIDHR
# Test Method Notes: SPR (Carterra), antibody immobilized, ST2 analyte, 1:1
Respond with the bare value in s⁻¹.

Below: 2 binders and their reported koff.
>>> reading("Human ST2 IgG1 Antibody 57 (antibody, V domains shown, IgG1, kappa; also called ST2 Antibody 57) VH: QVQLVQSGAEVKKPGASVKVSCKASGYTFTGYYMHWVRQAPGQGLEWMGVINPSGGSTSYAQKFQGRVTMTRDTSTSTVYMELSSLRSEDTAVYYCARGDYYYGSGSDYYYYYGMDVWGQGTLVTVSS VL: DIQMTQSPSSLSASVGDRVTITCRASQGVTSWLAWYQQKPGKAPKLLIYAASTLQSGVPSRFSGSGSGTDFTLTISSLQPEDFATYYCQQANSFPLTFGGGTKVEIKR")
0.16
>>> reading("Human ST2 IgG1 Antibody 21 (antibody, V domains shown, IgG1, kappa; also called ST2 Antibody 21) VH: QVQLVQSGAEVKKPGASVKVSCKASGYTFSNHYMHWVRQAPGQGLEWMGWVNPTSGNTGYAQKFQGRVTMTRDTSTSTVYMELSSLRSEDTAVYYCARDLGVTYFDLWGRGTLVTVSS VL: DIQMTQSPSSLSASVGDRVTITCRASQGISSWLAWYQQKPGKAPKLLIYEASHLETGVPSRFSGSGSGTDFTLTISSLQPEDFATYYCLQDYNYPLTFGGGTKVEIKR")
0.0085

Ask | State the recorded koff for this entry: Human ST2 IgG1 Antibody 16 (antibody, V domains shown, IgG1, kappa; also called ST2 Antibody 16) VH: QVQLVQSGAEVKKPGASVKVSCKASGYTFTSHYMHWVRQAPGQGLEWMGIINPSGGSTSYAQKFQGRVTMTRDTSTSTVYMELSSLRSEDTAVYYCARAGIGYLAAHDLYYYYGMDVWGRGTLVTVSS VL: EIVMTQSPATLSVSPGERATLSCRASQSVSSNFAWYQQKPGQAPRLLIYGASTRATGIPARFSGSGSGTEFTLTISSLQSEDFAVYYCQQYYSTPYTFGQGTKVEIKR
Reply | 0.1
